Experiment: Efflux ratio of apparent permeability across basolateral to apical side over apical to basolateral side in human Caco2 cells
Settings: Caco-2
readout kind: efflux ratio
Write the value as a bare number.

Challenge: I am curious: what efflux ratio value has been reported for CN(C)C(=O)c1cccc(-c2cnc(N)c(-c3nc4cccc(N5CCNCC5)c4[nH]3)c2)c1 ?
Response given: 3.6

Challenge: Quick check: efflux ratio of CN(C)C(=O)c1cccc(-c2cnc(N)c(-c3nc4cccc(N5CCNCC5)c4n3C)n2)c1 ?
Response given: 2.3

Challenge: I am curious: what efflux ratio value has been reported for CN(C)C(=O)c1cccc(-c2cnc(N)c(-c3nc4cccc(N5CCNCC5)c4[nH]3)n2)c1 ?
Response given: 87

Challenge: Suppose we examine the compound C[C@H]1CN(c2cccc3nc(-c4nc(-c5cc(C(=O)N(C)C)ccn5)cnc4N)n(C)c23)CCN1 ; what efflux ratio value has been reported?
Response given: 5
